system: murine splenocytes (Balb/c and C57B1/6); assay: Two-way mixed lymphocyte reaction (MLR) assay; conditions: read-out: two-way mixed lymphocyte reaction (MLR) suppression MLR, IC50; Balb/c + C57B1/6 splenocytes, 96 h, [3H]thymidine;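 further: proliferation read as tritiated thymidine incorporation into newly made DNA after an overnight pulse, expressed as percent of control activity, IC50 interpolated per compound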
Numbered stars: 1 amine (or outer) side, 2 acyl side, 3 side chain; on linkers, the order of the positions; unused ones are H or OH. Bridge positions count the residues as written; N and C are the ends. Square brackets hold non-standard residues; d marks the D form. Peptide text beside a SMILES is read from it. * marks the point of attachment. X1 = CC[C@H](C)[C@@H](N[*:1])[C@@H](O)CC(=O)O[C@H](C(=O)[C@H](C)C(=O)[*:2])C(C)C; X3 = CC[C@H](C)[C@H](N[*:1])[C@@H](O)CC(=O)O[C@H](C(=O)[C@H](C)C(=O)[*:2])C(C)C; X6 = CC[C@H](C)[C@@H](N[*:1])[C@H](O)CC(=O)O[C@H](C(=O)[C@H](C)C(=O)[*:2])C(C)C; NMeY = CN[C@@H](Cc1ccc(O)cc1)C(=O)O; Stearoyl = CCCCCCCCCCCCCCCCCC(=O)*; aThr = C[C@H](O)[C@H](N)C(=O)O; NMeL = CN[C@@H](CC(C)C)C(=O)O; dNMeL = CN[C@H](CC(C)C)C(=O)O; Lauroyl = CCCCCCCCCCCC(=O)*; Cbz = O=C(OCc1ccccc1)*; Hexanoyl = CCCCCC(=O)*; Pentanoyl = CCCCC(=O)*; For = O=C*
Classification scheme (IC50): 0 (below 0.6 nM), 1 (0.6 nM to below 20 nM), 2 (20 nM or more)

Prompt line: Exam item: assign CCCCCC(=O)N(C)[C@H](CC(C)C)C(=O)N[C@@H]1C(=O)N[C@H]([C@@H](C)CC)[C@@H](O)CC(=O)O[C@@H](C(C)C)C(=O)[C@H](C)C(=O)N[C@@H](CC(C)C)C(=O)N2CCC[C@H]2C(=O)N(C)[C@@H](Cc2ccc(OC)cc2)C(=O)O[C@@H]1C [Compound 22, N^α -Hexanoyldidemnin A] (Hexanoyl-[dNMeL]T[X1]LP[NMeY](Me); ester 2-C) to the correct category.
Response line: 0

Prompt line: Input CC[C@H](C)[C@H]1NC(=O)[C@@H](NC(=O)[C@@H](CC(C)C)N(C)C(=O)OCc2ccccc2)[C@@H](C)OC(=O)[C@H](Cc2ccc(OC)cc2)N(C)C(=O)[C@@H]2CCCN2C(=O)[C@H](CC(C)C)NC(=O)[C@@H](C)C(=O)[C@H](C(C)C)OC(=O)C[C@H]1O [Compound 4, Z-[(3R,4R,5S)Ist^2]Didemnin A] (Cbz-[dNMeL]T[X6]LP[NMeY](Me); ester 2-C) ; output its category
Response line: 1

Prompt line: # bin label for CCCCCCCCCCCC(=O)N(C)[C@H](CC(C)C)C(=O)N[C@@H]1C(=O)N[C@H]([C@@H](C)CC)[C@@H](O)CC(=O)O[C@@H](C(C)C)C(=O)[C@H](C)C(=O)N[C@@H](CC(C)C)C(=O)N2CCC[C@H]2C(=O)N(C)[C@@H](Cc2ccc(OC)cc2)C(=O)O[C@@H]1C [Compound 24, N^α -Dodecanoyldidemnin A] (Lauroyl-[dNMeL]T[X1]LP[NMeY](Me); ester 2-C)
Response line: 2

Prompt line: Hi there! Could you help me figure out the category for `CC[C@H](C)[C@H]1NC(=O)[C@@H](NC(=O)[C@@H](CC(C)C)N(C)C(=O)[C@@H]2CCCN2C(=O)[C@H](C)O)[C@@H](C)OC(=O)[C@H](Cc2ccc(OC)c(I)c2)N(C)C(=O)[C@@H]2CCCN2C(=O)[C@H](CC(C)C)NC(=O)[C@@H](C)C(=O)[C@H](C(C)C)OC(=O)C[C@@H]1O` please?
Response line: 1

Prompt line: Exercise: read the entry `CC[C@H](C)[C@H]1NC(=O)[C@@H](NC(=O)[C@@H](CC(C)C)NC)[C@@H](C)OC(=O)[C@H](Cc2ccc(OC)cc2)N(C)C(=O)[C@@H]2CCCN2C(=O)[C@H](CC(C)C)NC(=O)[C@@H](C)C(=O)[C@H](C(C)C)OC(=O)C[C@@H]1OC(C)=O` and state which class it falls under.
Response line: 2

Prompt line: Which band does CC[C@H](C)[C@H]1NC(=O)[C@@H](NC(=O)[C@@H](CC(C)C)N(C)C(=O)[C@@H]2CCCN2C(=O)[C@H](C)O)[C@@H](C)OC(=O)[C@H](CC2CCC(OC)CC2)N(C)C(=O)[C@@H]2CCCN2C(=O)[C@H](CC(C)C)NC(=O)[C@@H](C)C(=O)[C@H](C(C)C)OC(=O)C[C@@H]1O (some centres unmarked) [Compound 15, [H6 Me2 Tyr6]Didemnin B] fall in?
Response line: 1

Prompt line: // return the class label for CC[C@H](C)[C@H]1NC(=O)[C@@H](NC(=O)[C@@H](CC(C)C)N(C)C(=O)[C@@H]2CCCN2C(C)=O)[C@@H](C)OC(=O)[C@H](Cc2ccc(OC)cc2)N(C)C(=O)[C@@H]2CCCN2C(=O)[C@H](CC(C)C)NC(=O)[C@@H](C)C(=O)[C@H](C(C)C)OC(=O)C[C@@H]1O [Compound 31, [Acetyl^9]Didemnin B] (Ac-P[dNMeL]T[X1]LP[NMeY](Me); ester 3-C)
Response line: 0

Prompt line: Bin? CC[C@H](C)[C@@H](NC(=O)[C@@H](NC(=O)[C@@H](CC(C)C)NC)[C@@H](C)O)[C@@H](O)CC(=O)O[C@H](C(=O)[C@H](C)C(=O)N[C@@H](CC(C)C)C(=O)N1CCC[C@H]1C(=O)N(C)[C@@H](Cc1ccc(OC)cc1)C(=O)O)C(C)C [Compound 17, Acyclodidemnin A] (H-[dNMeL]T[X1]LP[NMeY](Me)-OH)
Response line: 0

Prompt line: Hi there! Could you help me figure out the category for CC[C@H](C)[C@@H]1NC(=O)[C@@H](NC(=O)[C@H](CC(C)C)N(C)C=O)[C@H](C)OC(=O)[C@H](Cc2ccc(OC)cc2)N(C)C(=O)[C@@H]2CCCN2C(=O)[C@H](CC(C)C)NC(=O)[C@@H](C)C(=O)[C@H](C(C)C)OC(=O)C[C@@H]1O [Compound 26, Didemnin G] (For-[NMeL][aThr][X3]LP[NMeY](Me); ester 2-C) please?
Response line: 1

Prompt line: Hey, which category is CCCCC(=O)N(C)[C@H](CC(C)C)C(=O)N[C@@H]1C(=O)N[C@H]([C@@H](C)CC)[C@@H](O)CC(=O)O[C@@H](C(C)C)C(=O)[C@H](C)C(=O)N[C@@H](CC(C)C)C(=O)N2CCC[C@H]2C(=O)N(C)[C@@H](Cc2ccc(OC)cc2)C(=O)O[C@@H]1C [Compound 21, N^α -Pentanoyldidemnin A] (Pentanoyl-[dNMeL]T[X1]LP[NMeY](Me); ester 2-C) in, do you know?
Response line: 0

Prompt line: Band assignment needed for CCCCCCCCCCCCCCCCCC(=O)N(C)[C@H](CC(C)C)C(=O)N[C@@H]1C(=O)N[C@H]([C@@H](C)CC)[C@@H](O)CC(=O)O[C@@H](C(C)C)C(=O)[C@H](C)C(=O)N[C@@H](CC(C)C)C(=O)N2CCC[C@H]2C(=O)N(C)[C@@H](Cc2ccc(OC)cc2)C(=O)O[C@@H]1C [Compound 25, N^α -Octadecanoyldidemnin A] (Stearoyl-[dNMeL]T[X1]LP[NMeY](Me); ester 2-C) please.
Response line: 2
